- assay-overview: MRP1 drug-resistance reversers in H69AR cells – cell-based, doxorubicin co-treatment, pilot screen (AID 601)
- condition-set: H69AR cells, CellTiter-Glo, 72 h; compound alone cytotoxicity; at 10 µM
Threshold-based label: viability under 90% gives fulfilled, viability not under 90% gives not fulfilled.

| compound | discrete-label |
| --- | --- |
| O=C(NCc1ccco1)c1cccc(-c2nnc(-c3ccccc3)o2)c1 | fulfilled |
| CCC(=O)n1nc(-c2ccco2)nc1N | not fulfilled |
| COc1ccc(CCNC(=O)c2nc3ncccn3n2)cc1OC | not fulfilled |
| Cc1ccc2nc(CSc3nnc(-c4ccco4)n3-c3ccccc3)cc(=O)n2c1 | fulfilled |
| CC(C)(C)C1CCc2onc(C(=O)Nc3cnn(Cc4ccc(F)cc4)c3)c2C1 (configuration not stated) | fulfilled |
| CCCCNC(=O)OC(C)CNC(=O)Oc1cccc(C)c1 (configuration not stated) | not fulfilled |
| O=c1cc(CSc2nnnn2-c2ccccc2)nc2scc(-c3ccccc3)n12 | not fulfilled |
| CCC1(CC)C(=O)N(C)C(=O)NC1=NCc1ccccc1 | not fulfilled |
